# Tested system: endogenous CETP from serum (Homo sapiens (Human), UniProt P11597)
# Sequence (P11597 18-493 limits assumed): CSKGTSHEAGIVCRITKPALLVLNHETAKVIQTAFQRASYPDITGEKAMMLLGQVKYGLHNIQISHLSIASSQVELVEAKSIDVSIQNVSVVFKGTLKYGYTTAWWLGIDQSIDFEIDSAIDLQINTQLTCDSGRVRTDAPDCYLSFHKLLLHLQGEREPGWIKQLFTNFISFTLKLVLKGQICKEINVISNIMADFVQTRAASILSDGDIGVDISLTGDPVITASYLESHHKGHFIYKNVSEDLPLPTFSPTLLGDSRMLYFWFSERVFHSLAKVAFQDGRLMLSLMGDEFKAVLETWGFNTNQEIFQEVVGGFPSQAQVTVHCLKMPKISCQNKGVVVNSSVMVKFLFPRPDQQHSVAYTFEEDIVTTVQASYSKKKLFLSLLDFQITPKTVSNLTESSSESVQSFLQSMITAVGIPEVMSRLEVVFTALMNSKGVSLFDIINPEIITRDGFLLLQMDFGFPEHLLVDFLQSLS
# Procedure summary: RTA assay in 95% human serum (CETP-catalyzed CE and TG transfer, endogenous CETP)
# Assay type: biochemical
# Condition description: RTA assay in 95% human serum; read-out: IC50
Field: label. Allowed values: satisfied (IC50 < 200 nM) or not satisfied (IC50 >= 200 nM).

**Q:** Is IC50 strictly under 200 nM for the entry "COc1cc(F)c(C(C)C)cc1-c1ccc(C(F)(F)F)cc1[C@@H]1C=C[C@H]2[C@@H](c3cc(C(F)(F)F)cc(C(F)(F)F)c3)OC(=O)N12" ?
**A:** satisfied

**Q:** Is IC50 strictly under 200 nM for the entry "COc1ncc(-c2c(C)cc(C(=O)O)cc2C)cc1-c1ncc(C(F)(F)F)cc1[C@@H]1CC[C@H]2[C@@H](c3cc(C(F)(F)F)cc(C(F)(F)F)c3)OC(=O)N12" ?
**A:** not satisfied

**Q:** Is IC50 strictly under 200 nM for the entry "Cc1cc(C(=O)O)ccc1-c1cnc(C)c(-c2ccc(C(F)(F)F)cc2[C@@H]2CC[C@H]3[C@@H](c4cc(C(F)(F)F)cc(C(F)(F)F)c4)OC(=O)N23)c1" ?
**A:** not satisfied

**Q:** Is IC50 strictly under 200 nM for the entry "COc1cc(F)c(-c2ccc(C(=O)O)cc2C)cc1-c1cnc(C(F)(F)F)cc1[C@@H]1CC[C@H]2[C@@H](c3cc(C(F)(F)F)cc(C(F)(F)F)c3)OC(=O)N12" ?
**A:** satisfied

**Q:** Is IC50 strictly under 200 nM for the entry "COc1cc(F)c(-c2ccc(C(=O)O)cc2C)cc1-c1ccc(C(F)(F)F)cc1[C@@H]1C=C[C@H]2[C@@H](c3cc(C(F)(F)F)cc(C(F)(F)F)c3)OC(=O)N12" ?
**A:** satisfied

**Q:** Is IC50 strictly under 200 nM for the entry "O=C1O[C@H](c2cc(C(F)(F)F)cc(C(F)(F)F)c2)[C@@H]2CC[C@@H](c3cc(C(F)(F)F)ccc3-c3ccccc3Cl)N12" ?
**A:** not satisfied

**Q:** Is IC50 strictly under 200 nM for the entry "COc1ccc(-c2cnc(C(=O)O)cc2C)cc1-c1ccc(F)cc1[C@@H]1CC[C@H]2[C@@H](c3cc(C(F)(F)F)cc(C(F)(F)F)c3)OC(=O)N12" ?
**A:** not satisfied

**Q:** Is IC50 strictly under 200 nM for the entry "COc1ccc(Cl)cc1-c1ccc(C(F)(F)F)cc1[C@@H]1CC[C@H]2[C@@H](c3cc(C(F)(F)F)cc(C(F)(F)F)c3)OC(=O)N12" ?
**A:** not satisfied

**Q:** Is IC50 strictly under 200 nM for the entry "COc1cc(F)c(-c2ccc(C(=O)O)cc2C)cc1-c1ccc(C(F)(F)F)cc1[C@@H]1CC[C@H]2[C@@H](c3cc(C)cc(C(F)(F)F)c3)OC(=O)N12" ?
**A:** satisfied

**Q:** Is IC50 strictly under 200 nM for the entry "COc1cc(F)c(C(C)C)cc1-c1ccc(C(F)(F)F)cc1[C@@H]1CCC[C@H]2[C@@H](c3cc(C(F)(F)F)cc(C(F)(F)F)c3)OC(=O)N12" ?
**A:** not satisfied

**Q:** Is IC50 strictly under 200 nM for the entry "COc1ccc(-c2ccc(C(=O)O)cc2C)cc1-c1ccc(N(C)C)nc1[C@@H]1C=C[C@H]2[C@@H](c3cc(C(F)(F)F)cc(C(F)(F)F)c3)OC(=O)N12" ?
**A:** not satisfied

**Q:** Is IC50 strictly under 200 nM for the entry "COc1ncc(-c2ccc(C(=O)O)cc2C)cc1-c1ncc(C(F)(F)F)cc1[C@@H]1C=C[C@H]2[C@@H](c3cc(C(F)(F)F)cc(C(F)(F)F)c3)OC(=O)N12" ?
**A:** not satisfied

* * *

# Tested system: endogenous CETP from serum (Homo sapiens (Human))
# Procedure summary: RTA assay in 95% human serum (CETP-catalyzed CE and TG transfer, endogenous CETP)
# Type: biochemical
# Condition description: RTA assay in 95% human serum; read-out: IC50
Field: label. Allowed values: true (1) (IC50 < 300 nM) or false (0) (IC50 >= 300 nM).

**Q:** Is IC50 strictly under 300 nM for the entry "COc1ncc(-c2ccc(C(=O)O)cc2C)cc1-c1ccc(C(F)(F)F)cc1[C@@H]1CC[C@H]2[C@@H](c3cc(C)cc(C(F)(F)F)c3)OC(=O)N12" ?
**A:** true (1)

**Q:** Is IC50 strictly under 300 nM for the entry "Cc1cscc1-c1ccc(C(F)(F)F)cc1[C@@H]1CC[C@H]2[C@@H](c3cc(C(F)(F)F)cc(C(F)(F)F)c3)OC(=O)N12" ?
**A:** true (1)

**Q:** Is IC50 strictly under 300 nM for the entry "O=C1O[C@H](c2cc(C(F)(F)F)cc(C(F)(F)F)c2)[C@@H]2CC[C@@H](c3cc(C(F)(F)F)ccc3-c3cc(Cl)ccc3F)N12" ?
**A:** true (1)

**Q:** Is IC50 strictly under 300 nM for the entry "COc1ccc(-c2ccc(C(=O)O)cc2C)cc1-c1ncc(C(F)(F)F)cc1[C@@H]1C=C[C@H]2[C@@H](c3cc(C(F)(F)F)cc(C(F)(F)F)c3)OC(=O)N12" ?
**A:** false (0)

**Q:** Is IC50 strictly under 300 nM for the entry "Cc1cocc1-c1ccc(C(F)(F)F)cc1[C@@H]1CC[C@H]2[C@@H](c3cc(C(F)(F)F)cc(C(F)(F)F)c3)OC(=O)N12" ?
**A:** false (0)

**Q:** Is IC50 strictly under 300 nM for the entry "COc1ccc([C@@H]2CC(=O)N[C@H]2C)cc1-c1ccc(C(F)(F)F)cc1[C@@H]1CC[C@H]2[C@@H](c3cc(C(F)(F)F)cc(C(F)(F)F)c3)OC(=O)N12" ?
**A:** false (0)

**Q:** Is IC50 strictly under 300 nM for the entry "N#Cc1cscc1-c1ccc(C(F)(F)F)cc1[C@@H]1CC[C@H]2[C@@H](c3cc(C(F)(F)F)cc(C(F)(F)F)c3)OC(=O)N12" ?
**A:** true (1)

**Q:** Is IC50 strictly under 300 nM for the entry "COc1ccc(C)cc1-c1ccc(C(F)(F)F)cc1[C@@H]1CC[C@H]2[C@@H](c3cc(C(F)(F)F)cc(C(F)(F)F)c3)OC(=O)N12" ?
**A:** true (1)

**Q:** Is IC50 strictly under 300 nM for the entry "COC(=O)c1ccc(-c2cc(-c3ccc(C(F)(F)F)cc3[C@@H]3CC[C@H]4[C@@H](c5cc(C(F)(F)F)cc(C(F)(F)F)c5)OC(=O)N34)c(OC)cc2F)c(C)c1" ?
**A:** false (0)

**Q:** Is IC50 strictly under 300 nM for the entry "Cc1ccc(Cl)cc1-c1ccc(C(F)(F)F)cc1[C@@H]1CC[C@H]2[C@@H](c3cc(C(F)(F)F)cc(C(F)(F)F)c3)OC(=O)N12" ?
**A:** false (0)

**Q:** Is IC50 strictly under 300 nM for the entry "COc1cc(F)c(C(C)C)cc1-c1cnc(N(C)C)cc1[C@@H]1C=C[C@H]2[C@@H](c3cc(C(F)(F)F)cc(C(F)(F)F)c3)OC(=O)N12" ?
**A:** false (0)

* * *

# Tested system: endogenous CETP from serum (Homo sapiens (Human))
# Procedure summary: RTA assay in 95% human serum (CETP-catalyzed CE and TG transfer, endogenous CETP)
# Type: biochemical
# Condition description: RTA assay in 95% human serum; read-out: IC50
Would you kindly list pIC50 for each of these molecules?
# reply with the number alone; pIC50 is -log10 of concentration in mol/L

**Q:** Using the record for COc1ncc(Cl)cc1-c1ccc(C(F)(F)F)cc1[C@@H]1CC[C@H]2[C@@H](c3cc(C(F)(F)F)cc(C(F)(F)F)c3)OC(=O)N12 [Example 11] , report its pIC50.
**A:** 6.53

**Q:** Using the record for COc1ccc(-c2ccc(C(=O)O)cc2C)cc1-c1ccc(F)cc1[C@@H]1CC[C@H]2[C@@H](c3cc(C(F)(F)F)cc(C(F)(F)F)c3)OC(=O)N12 [Example 34] , report its pIC50.
**A:** 6.64

**Q:** Using the record for COc1ncc(C(F)(F)F)cc1-c1ccc(C(F)(F)F)cc1[C@@H]1CC[C@H]2[C@@H](c3cc(C(F)(F)F)cc(C(F)(F)F)c3)OC(=O)N12 [Example 10] , report its pIC50.
**A:** 6.43

**Q:** Using the record for COc1cc(F)c(CCC(=O)O)cc1-c1ccc(C(F)(F)F)cc1[C@@H]1CCC[C@H]2[C@@H](c3cc(C(F)(F)F)cc(C(F)(F)F)c3)OC(=O)N12 [Example 46] , report its pIC50.
**A:** 5.79

**Q:** Using the record for COc1ccc([C@@H]2C[C@@H](O)[C@@H](O)C2)cc1-c1ccc(C(F)(F)F)cc1[C@@H]1CC[C@H]2[C@@H](c3cc(C(F)(F)F)cc(C(F)(F)F)c3)OC(=O)N12 [Example 58] , report its pIC50.
**A:** 6.38

**Q:** Using the record for COc1ccc(C2CCC(C(=O)O)CC2)cc1-c1ccc(C(F)(F)F)cc1[C@@H]1CC[C@H]2[C@@H](c3cc(C)cc(C(F)(F)F)c3)OC(=O)N12 (some centres unmarked) [Example 52] , report its pIC50.
**A:** 6.59

**Q:** Using the record for COc1ccc(C#N)cc1-c1ccc(C(F)(F)F)cc1[C@@H]1CC[C@H]2[C@@H](c3cc(C(F)(F)F)cc(C(F)(F)F)c3)OC(=O)N12 [Example 9] , report its pIC50.
**A:** 6.65

**Q:** Using the record for O=C1O[C@H](c2cc(C(F)(F)F)cc(C(F)(F)F)c2)[C@@H]2CC[C@@H](c3cc(C(F)(F)F)ccc3C3=CCCC3)N12 [Example 22] , report its pIC50.
**A:** 7.25

**Q:** Using the record for COc1cc(F)c(-c2ccc(C(=O)O)cc2C)cc1-c1ccc(C(F)(F)F)cc1[C@@H]1CCC[C@H]2[C@@H](c3cc(C(F)(F)F)cc(C(F)(F)F)c3)OC(=O)N12 [Example 44] , report its pIC50.
**A:** 6.14

**Q:** Using the record for O=C1O[C@H](c2cc(C(F)(F)F)cc(C(F)(F)F)c2)[C@@H]2CC[C@@H](c3cc(C(F)(F)F)ccc3C3=CCCCC3)N12 [Example 17] , report its pIC50.
**A:** 7.13

**Q:** Using the record for O=C1O[C@H](c2cc(C(F)(F)F)cc(C(F)(F)F)c2)[C@@H]2CC[C@@H](c3cc(C(F)(F)F)ccc3-c3ccsc3)N12 [Example 18] , report its pIC50.
**A:** 6.99

Reference for the values: patent US8871738B2
